- CONDITION_SET: human gut metagenome, 24 h, 2 µM; further: call rule not given here
ENDPOINT_LABEL: Bacterial Biotransformation

Here's what some known entries look like.
C=CC[C@@H]1/C=C(\C)C[C@H](C)C[C@H](OC)[C@H]2O[C@@](O)(C(=O)C(=O)N3CCCC[C@H]3C(=O)O[C@H](/C(C)=C/[C@@H]3CC[C@@H](O)[C@H](OC)C3)[C@H](C)[C@@H](O)CC1=O)[C@H](C)C[C@@H]2OC.O | Compound metabolized
Cc1cc(C)cc(OCC2CNC(=O)O2)c1 (configuration not stated) | Compound metabolized
CC(=O)O[C@H]1C(=O)[C@@]2(C)[C@H]([C@H](OC(=O)c3ccccc3)[C@]3(O)C[C@H](OC(=O)[C@H](O)[C@@H](NC(=O)c4ccccc4)c4ccccc4)C(C)=C1C3(C)C)[C@]1(OC(C)=O)CO[C@@H]1C[C@@H]2O | Compound NOT metabolized
C=C[C@H]1CN2CC[C@H]1C[C@H]2[C@H](O)c1ccnc2ccc(OC)cc12.C=C[C@H]1CN2CC[C@H]1C[C@H]2[C@H](O)c1ccnc2ccc(OC)cc12.O.O.O=S(=O)(O)O [QUININE SULFATE] | Compound metabolized
CN1CCN2c3ccccc3Cc3ccccc3C2C1 (configuration not stated) | Compound NOT metabolized
CN(C)C(=O)Oc1cccc([N+](C)(C)C)c1.[Br-] [NEOSTIGMINE BROMIDE] | Compound NOT metabolized

Turning now to a further record.
Prompt: For the compound CN1CCC(OC(c2ccccc2)c2ccccc2)CC1 , what Bacterial Biotransformation is on record?
Response: Compound NOT metabolized

----------
- ASSAY_SUMMARY: The drug is tested on Z-002 corresponding to rabbit gut metagenome with ENA study accession number: PRJEB37062 and ENA sample accession number: ERS12561802 for biotransformation under anaerobic condition. The drug concentrations were measured over 9 timepoints collected between 0 and 24 hours of incubation by liquid-chromatography-coupled mass spectrometry (LC–MS)
- CONDITION_SET: 2 µM
ENDPOINT_LABEL: Bacterial Biotransformation

Here's what some known entries look like.
OCCN(CCO)c1nc(N2CCCCC2)c2nc(N(CCO)CCO)nc(N3CCCCC3)c2n1 [DIPYRIDAMOLE] | Compound metabolized
COc1cc(NC(C)CCCN)c2ncccc2c1.O=P(O)(O)O.O=P(O)(O)O (stereo not given) [PRIMAQUINE PHOSPHATE] | Compound NOT metabolized
CN1CCCCC1CCN1c2ccccc2Sc2ccc([S+](C)[O-])cc21.O=S(=O)(O)c1ccccc1 (stereo not given) [MESORIDAZINE BESYLATE] | Compound metabolized
O=C(NC(Cc1cc(=O)[nH]c2ccccc12)C(=O)O)c1ccc(Cl)cc1 (stereo not given) [REBAMIPIDE] | Compound metabolized
Br.COc1ccc2c(c1)[C@]13CCCC[C@@H]1[C@H](C2)N(C)CC3.O [DEXTROMETHORPHAN HYDROBROMIDE] | Compound metabolized
Clc1cccc(Cl)c1N=C1NCCN1 [CLONIDINE] | Compound metabolized
CCc1oc2ccccc2c1C(=O)c1cc(Br)c(O)c(Br)c1 [BENZBROMARONE] | Compound metabolized
CN1CCN(CCCN2c3ccccc3Sc3ccc(Cl)cc32)CC1.O=S(=O)(O)CCS(=O)(=O)O [PROCHLORPERAZINE EDISYLATE] | Compound NOT metabolized

Prompt: For the molecule Cc1cc(C)cc(OCC2CNC(=O)O2)c1 (stereo not given) [METAXALONE] , what Bacterial Biotransformation is on record?
Response: Compound NOT metabolized

Prompt: Also need CC(C)(C)N.CCC[C@H](N[C@@H](C)C(=O)N1[C@H](C(=O)O)C[C@@H]2CCCC[C@@H]21)C(=O)OCC [PERINDOPRIL ERBUMINE] , thanks.
Response: Compound metabolized

Prompt: Also need CC#C[C@]1(O)CC[C@H]2[C@@H]3CCC4=CC(=O)CCC4=C3[C@@H](c3ccc(N(C)C)cc3)C[C@@]21C [MIFEPRISTONE] , thanks.
Response: Compound metabolized

Provenance of the data: ChEMBL document CHEMBL5724914
